Test system: DU-145
experiment.summary: Growth inhibition of human DU145 cells by sulforhodamine B assay
Type: functional
test.conditions: read-out: pGI50 (converted)

| compound | experimental.target | GI50 (µM) |
| --- | --- | --- |
| CC(C)=CC(=O)O[C@@H]1CC(C)(C)C[C@H]2C3=CC[C@@H]4[C@@]5(C)CC[C@H](O)C(C)(C)[C@@H]5CC[C@@]4(C)[C@]3(C)CC[C@@]12C(=O)O [Reduced Lantadene B] | DU-145 | 7.76 |
| C/C=C(/C)C(=O)O[C@@H]1CC(C)(C)C[C@H]2C3=CC[C@@H]4[C@@]5(C)CCC(=O)C(C)(C)[C@@H]5CC[C@@]4(C)[C@]3(C)CC[C@@]12C(=O)O [LANTADENE A] | DU-145 | 5.89 |
| CC(C)=CC(=O)O[C@@H]1CC(C)(C)C[C@H]2C3=CC[C@@H]4[C@@]5(C)CCC(=O)C(C)(C)[C@@H]5CC[C@@]4(C)[C@]3(C)CC[C@@]12C(=O)O | DU-145 | 5.13 |
| CC1(C)C[C@@H](O)[C@]2(C(=O)O)CC[C@]3(C)C(=CC[C@@H]4[C@@]5(C)C/C(=C\C=C\c6ccccc6)C(=O)C(C)(C)[C@@H]5CC[C@]43C)[C@@H]2C1 | DU-145 | 4.27 |
| C/C=C(/C)C(=O)O[C@@H]1CC(C)(C)C[C@H]2C3=CC[C@@H]4[C@@]5(C)CC[C@H](O)C(C)(C)[C@@H]5CC[C@@]4(C)[C@]3(C)CC[C@@]12C(=O)O [Reduced Lantadene A] | DU-145 | 2.14 |
